Entry source: patent US10906900B2

Here's a batch of compounds along with measured Kd for α-syn fibers (Homo sapiens (Human), UniProt P37840).
Give bare numbers, in nM.

Field: example entries. Status: answers known.
>  <compound>
CN(C)c1ccc(C#Cc2cc3cnccc3[nH]2)cc1 [Compound 22d]

>  <measurement.units>
nM

>  <Kd>
1

$$$$
>  <compound>
CC(=C(C#N)C#N)c1ccc2cc(N(C)CCF)ccc2c1 [FDDNP, reference compound]

>  <measurement.units>
nM

>  <Kd>
16.1

$$$$

Continue with the next compound.
For the record CNc1ccc(/C=C/c2ccc(OCCOCCOCCF)nc2)cc1 [AV45, reference compound] , what value of Kd is listed for α-syn fibers (Homo sapiens (Human), UniProt P37840)?
24.3

----------
Molecular target: Tau fibres (Homo sapiens (Human))
Sequence (P10636 other isoform, or with tags, fused parts or gaps): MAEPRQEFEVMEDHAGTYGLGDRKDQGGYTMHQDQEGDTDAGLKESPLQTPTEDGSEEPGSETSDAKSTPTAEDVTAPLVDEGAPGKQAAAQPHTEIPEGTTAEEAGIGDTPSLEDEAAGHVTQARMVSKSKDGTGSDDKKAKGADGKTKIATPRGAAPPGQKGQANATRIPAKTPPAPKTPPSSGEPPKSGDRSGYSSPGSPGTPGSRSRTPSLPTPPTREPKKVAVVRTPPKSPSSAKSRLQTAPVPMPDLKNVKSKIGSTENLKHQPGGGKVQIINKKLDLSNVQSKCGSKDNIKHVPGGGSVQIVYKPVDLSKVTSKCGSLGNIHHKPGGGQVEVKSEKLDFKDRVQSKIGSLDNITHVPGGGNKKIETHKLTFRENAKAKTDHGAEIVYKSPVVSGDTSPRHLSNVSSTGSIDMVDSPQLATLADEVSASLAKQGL
Test: In vitro inhibition of ThT binding and determination of Ki (fluorescence), Tau fibres
Conditions: vs Thioflavin T 500 nM; Tau fibres 200 nM; PBS pH7.4, 1 h RT
Protocol: Tau protein in PBS buffer containing 1 mM DTT is assembled into fiber in the presence of one twelfth of a molar equivalent of heparin at 37° C. under stirring. The samples are incubated for 1 h at room temperature (RT) to reach equilibrium. […] From each curve, the IC50 value is measured using the following equation: Y=min+(max−min)/1+([…])^slope
value.kind: pKi
One number for each entry, as −log10 of the molar value.

>  <molecule>
CNc1ccc(/C=C/c2ccc(OCCOCCOCCF)nc2)cc1 [AV45, reference compound]

>  <measured.number>
7.51

$$$$

Continue with the next molecule.
# pKi lookup, item CC(=C(C#N)C#N)c1ccc2cc(N(C)CCF)ccc2c1 [FDDNP, reference compound]
8.02
